Test system: Mycobacterium tuberculosis Erdman (autoluminescent)
Experiment: GRinf, maximum normalised growth rate inhibition (three-drug combination) (unitless (-1 to 1)); higher = less effect (negative = killing)
Conditions: in vitro model: cholesterol 0.05 mM; time point: constant (~7 days, model-specific)
readout.kind: GRinf
Response field accepts a number only; no unit should be typed.

CC(C)/N=c1\cc2n(-c3ccc(Cl)cc3)c3ccccc3nc-2cc1Nc1ccc(Cl)cc1 [clofazimine] + O=[N+]([O-])c1cn2c(n1)OC[C@@H](OCc1ccc(OC(F)(F)F)cc1)C2 [pretomanid] + NC(=O)c1cnccn1 [pyrazinamide] = -0.153
NNC(=O)c1ccncc1 [isoniazid] + COc1c(N2C[C@@H]3CCCN[C@@H]3C2)c(F)cc2c(=O)c(C(=O)O)cn(C3CC3)c12 [moxifloxacin] + NC(=O)c1cnccn1 [pyrazinamide] = -0.188
CC(C)/N=c1\cc2n(-c3ccc(Cl)cc3)c3ccccc3nc-2cc1Nc1ccc(Cl)cc1 [clofazimine] + CC[C@@H](CO)NCCN[C@@H](CC)CO [ethambutol] + CO[C@H]1/C=C/O[C@@]2(C)Oc3c(C)c(O)c4c(O)c(c(/C=N/N5CCN(C6CCCC6)CC5)c(O)c4c3C2=O)NC(=O)/C(C)=C\C=C\[C@H](C)[C@H](O)[C@@H](C)[C@@H](O)[C@@H](C)[C@H](OC(C)=O)[C@@H]1C [rifapentine] = -0.0332

Below: the item to evaluate.
NNC(=O)c1ccncc1 [isoniazid] + COc1c(N2C[C@@H]3CCCN[C@@H]3C2)c(F)cc2c(=O)c(C(=O)O)cn(C3CC3)c12 [moxifloxacin] + O=[N+]([O-])c1cn2c(n1)OC[C@@H](OCc1ccc(OC(F)(F)F)cc1)C2 [pretomanid] yielded GRinf of -0.26

====

Entries and their FIC50 values follow.
System: Mycobacterium tuberculosis Erdman (autoluminescent)
Test: FIC50 (Loewe) at 50% inhibition (log2); higher = more antagonistic
Settings: in vitro model: acidic pH 5.7; time point: terminal (~4-5 doublings, model-specific)
Response field accepts a number only; no unit should be typed.

CC[C@@H](CO)NCCN[C@@H](CC)CO [ethambutol] + CC(=O)NC[C@H]1CN(c2ccc(N3CCOCC3)c(F)c2)C(=O)O1 [linezolid] = 1.24

Below: the item to evaluate.
NC(=O)c1cnccn1 [pyrazinamide] + CO[C@H]1/C=C/O[C@@]2(C)Oc3c(C)c(O)c4c(O)c(c(/C=N/N5CCN(C)CC5)c(O)c4c3C2=O)NC(=O)/C(C)=C\C=C\[C@H](C)[C@H](O)[C@@H](C)[C@@H](O)[C@@H](C)[C@H](OC(C)=O)[C@@H]1C yielded FIC50 of -0.21

====

Entries and their Einf values follow.
System: Mycobacterium tuberculosis Erdman (autoluminescent)
Test: Einf, fitted maximum growth inhibition of three-drug combination (fraction); higher = stronger maximal inhibition
Conditions: in vitro model: valerate; time point: terminal (~4-5 doublings, model-specific)
Response field accepts a number only; no unit should be typed.

CC(C)/N=c1\cc2n(-c3ccc(Cl)cc3)c3ccccc3nc-2cc1Nc1ccc(Cl)cc1 [clofazimine] + NNC(=O)c1ccncc1 [isoniazid] + CO[C@H]1/C=C/O[C@@]2(C)Oc3c(C)c(O)c4c(O)c(c(/C=N/N5CCN(C)CC5)c(O)c4c3C2=O)NC(=O)/C(C)=C\C=C\[C@H](C)[C@H](O)[C@@H](C)[C@@H](O)[C@@H](C)[C@H](OC(C)=O)[C@@H]1C [rifampicin] = 0.918
COc1c(N2C[C@@H]3CCCN[C@@H]3C2)c(F)cc2c(=O)c(C(=O)O)cn(C3CC3)c12 [moxifloxacin] + NC(=O)c1cnccn1 [pyrazinamide] + CO[C@H]1/C=C/O[C@@]2(C)Oc3c(C)c(O)c4c(O)c(c(/C=N/N5CCN(C)CC5)c(O)c4c3C2=O)NC(=O)/C(C)=C\C=C\[C@H](C)[C@H](O)[C@@H](C)[C@@H](O)[C@@H](C)[C@H](OC(C)=O)[C@@H]1C [rifampicin] = 0.909

CC[C@@H](CO)NCCN[C@@H](CC)CO [ethambutol] + CC(=O)NC[C@H]1CN(c2ccc(N3CCOCC3)c(F)c2)C(=O)O1 [linezolid] + CO[C@H]1/C=C/O[C@@]2(C)Oc3c(C)c(O)c4c(O)c(c(/C=N/N5CCN(C)CC5)c(O)c4c3C2=O)NC(=O)/C(C)=C\C=C\[C@H](C)[C@H](O)[C@@H](C)[C@@H](O)[C@@H](C)[C@H](OC(C)=O)[C@@H]1C [rifampicin] yielded Einf of 0.921

NNC(=O)c1ccncc1 [isoniazid] + COc1c(N2C[C@@H]3CCCN[C@@H]3C2)c(F)cc2c(=O)c(C(=O)O)cn(C3CC3)c12 [moxifloxacin] + CO[C@H]1/C=C/O[C@@]2(C)Oc3c(C)c(O)c4c(O)c(c(/C=N/N5CCN(C6CCCC6)CC5)c(O)c4c3C2=O)NC(=O)/C(C)=C\C=C\[C@H](C)[C@H](O)[C@@H](C)[C@@H](O)[C@@H](C)[C@H](OC(C)=O)[C@@H]1C [rifapentine] yielded Einf of 0.933

COc1nc2ccc(Br)cc2cc1[C@@H](c1ccccc1)[C@@](O)(CCN(C)C)c1cccc2ccccc12 [bedaquiline] + CC(C)/N=c1\cc2n(-c3ccc(Cl)cc3)c3ccccc3nc-2cc1Nc1ccc(Cl)cc1 [clofazimine] + CO[C@H]1/C=C/O[C@@]2(C)Oc3c(C)c(O)c4c(O)c(c(/C=N/N5CCN(C)CC5)c(O)c4c3C2=O)NC(=O)/C(C)=C\C=C\[C@H](C)[C@H](O)[C@@H](C)[C@@H](O)[C@@H](C)[C@H](OC(C)=O)[C@@H]1C [rifampicin] yielded Einf of 0.936

====

Tested on: Mycobacterium tuberculosis Erdman (autoluminescent)
Assay: FIC90 (Loewe) at 90% inhibition (log2); higher = more antagonistic
Details: in vitro model: standard 7H9 glycerol; time point: constant = terminal
readout.kind: FIC90

Consider the reported FIC90 for these molecules:
COc1c(N2C[C@@H]3CCCN[C@@H]3C2)c(F)cc2c(=O)c(C(=O)O)cn(C3CC3)c12 [moxifloxacin] + CO[C@H]1/C=C/O[C@@]2(C)Oc3c(C)c(O)c4c(O)c(c(/C=N/N5CCN(C6CCCC6)CC5)c(O)c4c3C2=O)NC(=O)/C(C)=C\C=C\[C@H](C)[C@H](O)[C@@H](C)[C@@H](O)[C@@H](C)[C@H](OC(C)=O)[C@@H]1C [rifapentine] = 0.225
NNC(=O)c1ccncc1 [isoniazid] + COc1c(N2C[C@@H]3CCCN[C@@H]3C2)c(F)cc2c(=O)c(C(=O)O)cn(C3CC3)c12 [moxifloxacin] = 0.332
CO[C@H]1/C=C/O[C@@]2(C)Oc3c(C)c(O)c4c(O)c(c(/C=N/N5CCN(C6CCCC6)CC5)c(O)c4c3C2=O)NC(=O)/C(C)=C\C=C\[C@H](C)[C@H](O)[C@@H](C)[C@@H](O)[C@@H](C)[C@H](OC(C)=O)[C@@H]1C [rifapentine] + CO[C@H]1/C=C/O[C@@]2(C)Oc3c(C)c(O)c4c(O)c(c(/C=N/N5CCN(C)CC5)c(O)c4c3C2=O)NC(=O)/C(C)=C\C=C\[C@H](C)[C@H](O)[C@@H](C)[C@@H](O)[C@@H](C)[C@H](OC(C)=O)[C@@H]1C [rifampicin] = 0.54
COc1nc2ccc(Br)cc2cc1[C@@H](c1ccccc1)[C@@](O)(CCN(C)C)c1cccc2ccccc12 [bedaquiline] + CO[C@H]1/C=C/O[C@@]2(C)Oc3c(C)c(O)c4c(O)c(c(/C=N/N5CCN(C6CCCC6)CC5)c(O)c4c3C2=O)NC(=O)/C(C)=C\C=C\[C@H](C)[C@H](O)[C@@H](C)[C@@H](O)[C@@H](C)[C@H](OC(C)=O)[C@@H]1C [rifapentine] = 0.112
NNC(=O)c1ccncc1 [isoniazid] + CO[C@H]1/C=C/O[C@@]2(C)Oc3c(C)c(O)c4c(O)c(c(/C=N/N5CCN(C)CC5)c(O)c4c3C2=O)NC(=O)/C(C)=C\C=C\[C@H](C)[C@H](O)[C@@H](C)[C@@H](O)[C@@H](C)[C@H](OC(C)=O)[C@@H]1C [rifampicin] = -0.093
CC(=O)NC[C@H]1CN(c2ccc(N3CCOCC3)c(F)c2)C(=O)O1 [linezolid] + O=[N+]([O-])c1cn2c(n1)OC[C@@H](OCc1ccc(OC(F)(F)F)cc1)C2 [pretomanid] = 0.309

Below: the item to evaluate.
Form: item COc1nc2ccc(Br)cc2cc1[C@@H](c1ccccc1)[C@@](O)(CCN(C)C)c1cccc2ccccc12 [bedaquiline] + CC(=O)NC[C@H]1CN(c2ccc(N3CCOCC3)c(F)c2)C(=O)O1 [linezolid] ; test system Mycobacterium tuberculosis Erdman (autoluminescent); FIC90: 0.0991

====

Test system: Mycobacterium tuberculosis Erdman (autoluminescent)
Experiment: Einf, fitted maximum growth inhibition of combination (fraction); higher = stronger maximal inhibition
Settings: in vitro model: standard 7H9 glycerol; time point: constant = terminal
readout.kind: Einf
Response field accepts a number only; no unit should be typed.

Form: item COc1c(N2C[C@@H]3CCCN[C@@H]3C2)c(F)cc2c(=O)c(C(=O)O)cn(C3CC3)c12 [moxifloxacin] + CO[C@H]1/C=C/O[C@@]2(C)Oc3c(C)c(O)c4c(O)c(c(/C=N/N5CCN(C6CCCC6)CC5)c(O)c4c3C2=O)NC(=O)/C(C)=C\C=C\[C@H](C)[C@H](O)[C@@H](C)[C@@H](O)[C@@H](C)[C@H](OC(C)=O)[C@@H]1C ; test system Mycobacterium tuberculosis Erdman (autoluminescent); Einf: 0.893

Form: item CC(=O)NC[C@H]1CN(c2ccc(N3CCOCC3)c(F)c2)C(=O)O1 [linezolid] + CO[C@H]1/C=C/O[C@@]2(C)Oc3c(C)c(O)c4c(O)c(c(/C=N/N5CCN(C)CC5)c(O)c4c3C2=O)NC(=O)/C(C)=C\C=C\[C@H](C)[C@H](O)[C@@H](C)[C@@H](O)[C@@H](C)[C@H](OC(C)=O)[C@@H]1C [rifampicin] ; test system Mycobacterium tuberculosis Erdman (autoluminescent); Einf: 0.885

Form: item CC(=O)NC[C@H]1CN(c2ccc(N3CCOCC3)c(F)c2)C(=O)O1 [linezolid] + CO[C@H]1/C=C/O[C@@]2(C)Oc3c(C)c(O)c4c(O)c(c(/C=N/N5CCN(C6CCCC6)CC5)c(O)c4c3C2=O)NC(=O)/C(C)=C\C=C\[C@H](C)[C@H](O)[C@@H](C)[C@@H](O)[C@@H](C)[C@H](OC(C)=O)[C@@H]1C [rifapentine] ; test system Mycobacterium tuberculosis Erdman (autoluminescent); Einf: 0.927
